# target-system: DRB1*0901 (Homo sapiens, UniProt P01903+P01911, A100R/A103E/D57H/D86V/F55Y/F60I/F76Y/I96F/K127E/L162R/M171V/P40D/Q125H/Q99R/R33Q/R42F/S133A/S66N/T210M/V115G/W38K/Y107V/Y59G/Y89S)
# method: biochemical
# Type: binding
No end group written: not given here.
assay-endpoint: IC50

Recorded results for 8 sequences are shown here.
[
  {
    "query-sequence": "ETCMVIEPPKLRSQT [Peptide 90.0083]",
    "result": "> 20 µM"
  },
  {
    "query-sequence": "ITHIGHQVVPPMAVS [Peptide 90.0010]",
    "result": "> 20 µM"
  },
  {
    "query-sequence": "LNTVKIPNTVSVSTG [Peptide 89.0178]",
    "result": "1.14 µM"
  },
  {
    "query-sequence": "RVCLLFYSKVRKYRY [Peptide 1543.54]",
    "result": "0.656 µM"
  },
  {
    "query-sequence": "VSFLSALKLFLKGVP [Peptide 89.0053]",
    "result": "2.12 µM"
  },
  {
    "query-sequence": "ISEVYGDTPEWIQRQ [Peptide 90.0035]",
    "result": "> 20 µM"
  },
  {
    "query-sequence": "SEIYIIEETTCTLVA [Peptide 90.0250]",
    "result": "> 20 µM"
  },
  {
    "query-sequence": "GLYYWCDGEKIYFVK [Peptide 90.0226]",
    "result": "> 20 µM"
  }
]

// query # get_value(readout='IC50', item= NKALQAIELQLTLET [Peptide 89.0151] )
// result 16.8 µM

// query # get_value(readout='IC50', item= TYISTSQRDDFLNTV [Peptide 1601.27] )
// result 13 µM

// query # get_value(readout='IC50', item= DDRWPYLHSRLVVFT [Peptide 89.0058] )
// result 0.158 µM

// query # get_value(readout='IC50', item= HQVVPSLVASKTKAF [Peptide 90.0023] )
// result > 20 µM

// query # get_value(readout='IC50', item= LSHVKIPVVYRLVWD [Peptide 90.0020] )
// result 0.469 µM

Values were extracted from patent US9340577B2.
